Data provenance: paper PMC7506991

Target: Timeless (optimised construct);Tipin (Homo sapiens;Homo sapiens, UniProt Q9UNS1;Q9BVW5 1-238+=GSTGST+331-1208;1-301, internal_change|)
Sequence (Q9UNS1 other isoform, or with tags, fused parts or gaps |, chain 1 of 2): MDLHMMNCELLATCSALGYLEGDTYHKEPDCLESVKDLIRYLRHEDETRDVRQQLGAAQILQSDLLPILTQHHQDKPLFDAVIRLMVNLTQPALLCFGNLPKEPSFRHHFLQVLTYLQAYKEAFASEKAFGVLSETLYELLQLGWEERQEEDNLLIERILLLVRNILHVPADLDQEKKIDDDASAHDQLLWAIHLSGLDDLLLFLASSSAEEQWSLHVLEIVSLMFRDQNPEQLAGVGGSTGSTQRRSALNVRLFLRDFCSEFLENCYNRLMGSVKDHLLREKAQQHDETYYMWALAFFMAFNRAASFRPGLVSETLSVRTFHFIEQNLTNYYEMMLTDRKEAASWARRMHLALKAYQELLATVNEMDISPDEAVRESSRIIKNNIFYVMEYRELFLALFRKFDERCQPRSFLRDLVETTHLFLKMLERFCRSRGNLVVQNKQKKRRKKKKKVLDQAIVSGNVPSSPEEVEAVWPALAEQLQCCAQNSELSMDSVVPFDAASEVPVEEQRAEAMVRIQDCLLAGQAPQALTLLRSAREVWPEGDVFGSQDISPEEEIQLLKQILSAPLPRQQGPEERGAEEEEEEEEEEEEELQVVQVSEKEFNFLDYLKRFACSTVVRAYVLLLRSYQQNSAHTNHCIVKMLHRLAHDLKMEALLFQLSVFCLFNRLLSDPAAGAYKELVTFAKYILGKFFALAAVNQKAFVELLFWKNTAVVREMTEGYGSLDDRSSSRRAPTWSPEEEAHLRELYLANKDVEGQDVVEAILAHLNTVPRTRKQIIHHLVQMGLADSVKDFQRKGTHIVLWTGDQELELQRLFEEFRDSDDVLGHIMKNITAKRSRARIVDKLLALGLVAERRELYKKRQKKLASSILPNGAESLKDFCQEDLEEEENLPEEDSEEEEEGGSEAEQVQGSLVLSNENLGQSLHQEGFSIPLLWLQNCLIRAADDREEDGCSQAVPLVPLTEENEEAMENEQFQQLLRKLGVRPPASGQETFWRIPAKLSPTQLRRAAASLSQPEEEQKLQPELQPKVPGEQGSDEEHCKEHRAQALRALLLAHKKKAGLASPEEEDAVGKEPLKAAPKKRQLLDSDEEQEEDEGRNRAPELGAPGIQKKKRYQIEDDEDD
Sequence (Q9BVW5 whole entry, change not shown, chain 2 of 2): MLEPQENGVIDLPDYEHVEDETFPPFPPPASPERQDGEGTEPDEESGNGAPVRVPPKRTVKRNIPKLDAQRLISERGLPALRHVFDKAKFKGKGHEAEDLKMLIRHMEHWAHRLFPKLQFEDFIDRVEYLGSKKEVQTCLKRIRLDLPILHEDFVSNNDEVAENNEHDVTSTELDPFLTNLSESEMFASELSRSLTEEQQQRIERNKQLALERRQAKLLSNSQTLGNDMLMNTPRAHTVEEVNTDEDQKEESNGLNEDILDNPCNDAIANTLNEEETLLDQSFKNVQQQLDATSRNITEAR
Assay: fluorescence anisotropy; 150 mM KCl, 5 mM MgCl2; FA at 25 C, 10 nM DNA: DBD in 25 mM HEPES-NaOH pH 7.2, 150 mM KCl, 0.5 mM EDTA, 0.005% Tween-20; Timeless-Tipin in 25 mM HEPES pH 7.1, 150 mM KCl, 1 mM DTT, 5 mM MgCl2; EMSA in 25 mM HEPES pH 7.1, 150 mM KCl, 5 mM MgCl2, 1 mM DTT on ice, 1% agarose at 4 C
Details: protein: recombinant;recombinant; tags: His14-SUMO removed;His6-GST removed; copies: 1;1; label: 5' 6FAM; G4 intramolecular with ssDNA flanks
MEASURED ATTRIBUTE: pKd
Answers are plain numbers, as −log10 of the molar value.

Q: Please list pKd recorded for the binder ssG4 (structured_DNA) DNA: ACGAGAGCTAGCACATTTTGAGGGTGGGTAGGGTGGGTAATTTTCACGTAGAACCTGT
A: 6.22
